- TESTED SYSTEM: Recombinant human his-tagged IGF R extracellular domain protein (human) (UniProt P08069)
- ASSAY PROTOCOL: SPR, Ab captured via anti-huIgG Fc, pH 7.4
Catalogue of binders with associated kon
Report the value in M⁻¹ s⁻¹ with no unit label.

A selection of reference data follows.
Entry VRDN-02064 (antibody, V domains shown) VH: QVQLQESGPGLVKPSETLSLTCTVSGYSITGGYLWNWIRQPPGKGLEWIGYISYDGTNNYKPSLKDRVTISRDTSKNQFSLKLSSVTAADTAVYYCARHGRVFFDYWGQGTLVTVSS VL: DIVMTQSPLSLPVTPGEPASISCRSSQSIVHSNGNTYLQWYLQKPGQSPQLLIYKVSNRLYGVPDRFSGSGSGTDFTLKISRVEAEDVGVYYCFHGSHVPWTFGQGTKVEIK ; kon = 106000

The recorded kon for VRDN-02056 (antibody, V domains shown) VH: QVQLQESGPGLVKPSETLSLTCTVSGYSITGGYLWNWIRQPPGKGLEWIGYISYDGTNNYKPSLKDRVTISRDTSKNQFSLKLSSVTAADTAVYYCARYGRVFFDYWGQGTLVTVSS VL: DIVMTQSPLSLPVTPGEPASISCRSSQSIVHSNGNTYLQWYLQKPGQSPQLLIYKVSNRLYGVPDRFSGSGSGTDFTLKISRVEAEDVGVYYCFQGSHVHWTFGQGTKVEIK is 83500

Sample VRDN-02069 (antibody, V domains shown) VH: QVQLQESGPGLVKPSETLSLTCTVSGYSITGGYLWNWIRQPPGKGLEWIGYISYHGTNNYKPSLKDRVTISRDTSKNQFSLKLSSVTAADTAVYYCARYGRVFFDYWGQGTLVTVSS VL: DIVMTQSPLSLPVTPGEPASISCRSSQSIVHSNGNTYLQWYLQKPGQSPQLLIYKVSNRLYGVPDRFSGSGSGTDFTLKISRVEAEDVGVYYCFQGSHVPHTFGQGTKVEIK ; kon observed: 111000

The reported value for VRDN-02074 (antibody, V domains shown) VH: QVQLQESGPGLVKPSETLSLTCTVSGYSITGGYLWNWIRQPPGKGLEWIGYISYHGTNNYKPSLKDRVTISRDTSKNQFSLKLSSVTAADTAVYYCARHGRVFFDYWGQGTLVTVSS VL: DIVMTQSPLSLPVTPGEPASISCRSHQSIVHSNGNTYLQWYLQKPGQSPQLLIYKVSNRLYGVPDRFSGSGSGTDFTLKISRVEAEDVGVYYCFHGSHVPWTFGQGTKVEIK in terms of kon is 132000

Please fill in: kon reported for VRDN-02048 (antibody, V domains shown) VH: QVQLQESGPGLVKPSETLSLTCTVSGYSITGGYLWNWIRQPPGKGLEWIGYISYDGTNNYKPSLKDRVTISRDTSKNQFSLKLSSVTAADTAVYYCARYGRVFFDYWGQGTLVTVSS VL: DIVMTQSPLSLPVTPGEPASISCRSSQSIVHSNGNTYLQWYLQKPGQSPQLLIYKVSNHLYGVPDRFSGSGSGTDFTLKISRVEAEDVGVYYCFQGSHVPWTFGQGTKVEIK = 75700

Next:
The measured kon associated with VRDN-02049 (antibody, V domains shown) VH: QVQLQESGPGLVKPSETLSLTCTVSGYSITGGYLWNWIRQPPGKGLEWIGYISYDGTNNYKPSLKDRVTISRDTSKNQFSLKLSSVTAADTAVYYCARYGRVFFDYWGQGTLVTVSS VL: DIVMTQSPLSLPVTPGEPASISCRSSQSIVHSNGNTYLQWYLQKPGQSPQLLIYKVSNRHYGVPDRFSGSGSGTDFTLKISRVEAEDVGVYYCFQGSHVPWTFGQGTKVEIK reads 83700

Documented kon of VRDN-02012 (antibody, V domains shown) VH: QVQLQESGPGLVKPSETLSLTCTVSGYSITGGYLWNWIRQPPGKGLEWIGHISYDGTNNYKPSLKDRVTISRDTSKNQFSLKLSSVTAADTAVYYCARYGRVFFDYWGQGTLVTVSS VL: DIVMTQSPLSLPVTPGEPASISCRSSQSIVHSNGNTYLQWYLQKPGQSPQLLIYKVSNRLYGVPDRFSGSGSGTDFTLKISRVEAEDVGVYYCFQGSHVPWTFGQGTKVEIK : 91800

Entry VRDN-02014 (antibody, V domains shown) VH: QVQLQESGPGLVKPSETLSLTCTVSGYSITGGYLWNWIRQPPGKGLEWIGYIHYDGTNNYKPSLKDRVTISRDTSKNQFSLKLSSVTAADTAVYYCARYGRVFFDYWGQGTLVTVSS VL: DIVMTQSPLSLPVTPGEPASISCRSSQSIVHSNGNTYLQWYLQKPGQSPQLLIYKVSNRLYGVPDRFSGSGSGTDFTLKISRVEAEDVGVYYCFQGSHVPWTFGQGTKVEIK ; kon = 88700

// VRDN-02058 (antibody, V domains shown) VH: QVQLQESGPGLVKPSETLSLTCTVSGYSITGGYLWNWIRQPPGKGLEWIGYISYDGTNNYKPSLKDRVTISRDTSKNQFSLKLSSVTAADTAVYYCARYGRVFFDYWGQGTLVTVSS VL: DIVMTQSPLSLPVTPGEPASISCRSSQSIVHSNGNTYLQWYLQKPGQSPQLLIYKVSNRLYGVPDRFSGSGSGTDFTLKISRVEAEDVGVYYCFQGSHVPWHFGQGTKVEIK : kon value = 102000

The reported value for VRDN-02002 (antibody, V domains shown) VH: QVQLQESGPGLVKPSETLSLTCTVSGHSITGGYLWNWIRQPPGKGLEWIGYISYDGTNNYKPSLKDRVTISRDTSKNQFSLKLSSVTAADTAVYYCARYGRVFFDYWGQGTLVTVSS VL: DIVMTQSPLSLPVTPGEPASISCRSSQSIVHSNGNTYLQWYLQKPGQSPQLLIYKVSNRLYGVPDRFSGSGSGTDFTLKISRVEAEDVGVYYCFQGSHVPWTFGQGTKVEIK in terms of kon is 105000
